The origin of these recorded values is PubChem BioAssay.

Recorded composite z-score values for a group of compounds are listed next.
Biological target: Left-right determination factor 2 (Homo sapiens)
Assay: small molecules binding LEFTY2 protein – biochemical, small-molecule microarray, 635 nm fluorescence scan, primary screen (AID 1110)
Conditions: higher = more signal
measurement_type: composite z-score

[[record]]
compound = "O=[N+]([O-])c1ccc(C[n+]2ccc(CCCO)cc2)o1"
result_number = 0.69

[[record]]
compound = "[N-]=[N+]=NCc1ccccc1C[C@]1(C(N)=O)N=C(c2ccc(OCCCO)cc2)O[C@H]1c1ccccc1N=[N+]=[N-]"
result_number = 0.308

[[record]]
compound = "C=C(CCCC)C(=O)CC[C@H](OC(C)=O)c1ccc(CO)o1"
result_number = -0.0361

[[record]]
compound = "C=CCC(OC(C)=O)[C@@H]1[C@@H](N(Cc2cc3ccccc3o2)C(=O)c2cccc3ccccc23)c2cc(OCCCO)ccc2N1C(=O)Cc1ccc2ccccc2c1 (some centres undefined)"
result_number = -0.31

